# Tested on: MCF-7
# procedure_text: MTT cytotoxicity assay, MCF-7 cells
# Type: cell-based
# assay_context: Homo sapiens, MCF7, 72 h, read-out: IC50 (μM) MCF-7
assay_readout: IC50 (µM)

compound	unit_string	recorded_number
COc1cccc2c1C(=O)c1c(O)c3c(c(O)c1C2=O)C[C@@](O)(C(=O)CO)C[C@@H]3O[C@H]1C[C@H](N)[C@H](O)[C@H](C)O1 [Doxorubicin, reference compound]	µM	0.02
COc1cc(OC)c(-c2coc3c(CC=C(C)C)c(OC)c(OC)cc3c2=O)cc1OC [Compound 4]	µM	18.5
COc1cc(-c2coc3c(CC=C(C)C)c(OC)c(OC)c(O)c3c2=O)c(OC)cc1O [Compound 5]	µM	35.1

Source of measurements: paper PMC6626068
